# Test system: A549
# assay.explanation: NCI tumour cell line growth inhibition, 48 h
Active and inactive are the calls of the source. Cut-off read from the data, not from the text of the source: active = GI50 up to about 1.1 µM and inactive = higher.
Log the outcome using a class from active, inactive

Cc1cc2c3ccccc3n3c2c2c1OC1(C)CCC(C2C1)C3(C)C (stereo unspecified): inactive
CN(C)N1C(=O)SCC(c2ccccc2)(c2ccccc2)C1=O: inactive
CCOc1ccc(/C=C/c2cc(OC)c(OC)c(OC)c2)cc1: active
CSC1(C(=O)O)C2CCC3C2CCC31 (stereo unspecified): inactive
COC(=O)/C=C(/OC)[C@H](C)[C@H](/C=C/c1csc(-c2csc(C(C)C)n2)n1)OC: active
O=C(N/N=C\c1c(O)ccc2ccccc12)c1ccncc1: active

Called result for COc1cccc(/C=C\c2ccc(O)cc2)c1 inactive

Called result for NC(=O)C(=CN1CC(=O)NC1=S)C(N)=O inactive

Called result for COC(=O)C(=O)C(C(=O)C(=O)Nc1nnc(S)[nH]1)c1nc2ccc([N+](=O)[O-])cc2nc1O (stereo unspecified) inactive

Called result for COc1ccc(C2c3cc4c(cc3OC(NNC(N)=O)C2C)OCO4)cc1 (stereo unspecified) inactive

Called result for COc1cc(C2SCC(=O)N2Cc2ccccc2)cc(OC)c1OC (stereo unspecified) inactive
